# credit: patent US20250250357A1

- targetOfAssay: T1, human MSLN on OVCAR3 tumor cells (human, UniProt Q13421 296-598)
- T1 construct: whole, on cells; also called human MSLN protein
- T1 sequence (Q13421 other isoform, or with tags, fused parts or gaps): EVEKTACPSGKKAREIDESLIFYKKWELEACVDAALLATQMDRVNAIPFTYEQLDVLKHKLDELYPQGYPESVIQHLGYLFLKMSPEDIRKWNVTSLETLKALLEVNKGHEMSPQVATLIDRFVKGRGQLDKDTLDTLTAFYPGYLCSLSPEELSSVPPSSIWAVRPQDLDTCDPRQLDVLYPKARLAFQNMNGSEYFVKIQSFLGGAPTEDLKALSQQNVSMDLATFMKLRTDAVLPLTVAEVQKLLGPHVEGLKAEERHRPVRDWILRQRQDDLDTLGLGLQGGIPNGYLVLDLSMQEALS
- protocolDetails: FACS, OVCAR3 cells
Entries and their EC50
Give the value, in units of pM, as a plain number.

[[record]]
binder = "F7.44.20-H7 (scFv, not shown: small tags and cut ends, also called S009-F7.44.20 humanized antibody VH1a + VL3) scFv: EVQLVQSGAEVKKPGASVKVSCKASGYTFTDYNMDWVRQAPGQGLEWMGDINPSTGGTIYNQKFQGRVTMTEDKSTSTVYMELSSLRSEDTAVYYCARRRIGTGYFDVWGQGTTVTVSSGGGGSGGGGSGGGGSEIVLTQSPATLSLSPGERATLSCSASSSVISSYLSWYQQKPGQSPRLLIYRTSNLASGIPARFSGSGSGTDYTLTISSLEPEDFAVYYCHQWSSFPYTFGGGTKVEIK"
assayvalue = 1110


# input for lookup
Sample F7.44.20-H1 (scFv, not shown: small tags and cut ends, also called S009-F7.44.20 humanized antibody VH1 + VL1) scFv: EVQLVQSGAEVKKPGASVKVSCKASGYTFTDYNMDWVRQAPGQGLEWMGDINPSTGGTIYNQKFNGRVTMTEDKSTSTVYMELSSLRSEDTAVYYCARRRIGTGYFDVWGQGTTVTVSSGGGGSGGGGSGGGGSEIVLTQSPDFQSVTPKEKVTITCSASSSVISSYLSWYQQKPDQSPKLLIYRTSNLASGVPSRFSGSGSGTDFTLTINSLEAEDAATYYCHQWSSFPYTFGGGTKVEIK ; EC50 observed: 400
